Target: various mutants of kinase EGFR (BaF3 cell lines stably transfected with kinase) (Homo sapiens, UniProt P00533, T790M, form not given)
Construct: other: BaF3 cells stably transfected with EGFR Δ19Del/T790M; MTS, 48 h; other: BaF3 cell line stably transfected with EGFR Δ19Del/T790M; MTS, 48
Sequence (P00533 with tags, fused parts or gaps DEL746-750/T790M, form open): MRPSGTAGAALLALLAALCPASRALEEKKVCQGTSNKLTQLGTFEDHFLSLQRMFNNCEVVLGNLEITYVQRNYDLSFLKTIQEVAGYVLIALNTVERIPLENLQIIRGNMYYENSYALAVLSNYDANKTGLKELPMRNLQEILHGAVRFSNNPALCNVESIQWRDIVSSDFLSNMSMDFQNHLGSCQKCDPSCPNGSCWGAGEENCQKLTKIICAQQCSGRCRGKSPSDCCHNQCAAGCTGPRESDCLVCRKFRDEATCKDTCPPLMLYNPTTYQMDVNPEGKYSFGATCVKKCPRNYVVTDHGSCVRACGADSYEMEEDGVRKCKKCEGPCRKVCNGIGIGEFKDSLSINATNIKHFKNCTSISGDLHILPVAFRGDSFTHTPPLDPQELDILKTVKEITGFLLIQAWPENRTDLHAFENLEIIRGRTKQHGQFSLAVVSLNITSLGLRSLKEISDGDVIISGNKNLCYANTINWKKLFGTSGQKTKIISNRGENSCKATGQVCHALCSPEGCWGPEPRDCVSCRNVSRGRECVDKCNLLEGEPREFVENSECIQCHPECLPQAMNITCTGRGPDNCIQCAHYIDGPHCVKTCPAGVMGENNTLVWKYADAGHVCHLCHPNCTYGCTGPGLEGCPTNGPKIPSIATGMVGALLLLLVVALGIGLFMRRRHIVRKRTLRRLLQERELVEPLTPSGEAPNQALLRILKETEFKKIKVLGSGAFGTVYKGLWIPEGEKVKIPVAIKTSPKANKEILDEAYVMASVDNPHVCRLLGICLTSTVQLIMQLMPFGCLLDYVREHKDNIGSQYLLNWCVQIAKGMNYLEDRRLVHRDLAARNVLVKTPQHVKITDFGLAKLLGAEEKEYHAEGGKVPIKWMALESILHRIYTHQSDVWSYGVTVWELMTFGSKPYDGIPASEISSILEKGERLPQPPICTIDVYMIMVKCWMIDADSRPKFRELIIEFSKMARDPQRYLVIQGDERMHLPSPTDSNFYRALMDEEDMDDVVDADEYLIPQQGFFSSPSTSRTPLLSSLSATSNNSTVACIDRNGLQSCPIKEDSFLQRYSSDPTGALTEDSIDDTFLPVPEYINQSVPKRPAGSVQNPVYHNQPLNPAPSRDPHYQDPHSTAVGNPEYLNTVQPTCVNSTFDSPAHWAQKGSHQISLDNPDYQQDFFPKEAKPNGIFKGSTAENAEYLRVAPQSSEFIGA
Experiment: Growth inhibitory activity of compounds on BaF3 cell lines stably transfected with kinase (MTS, 48 h)
Assay type: cell-based
Details: BaF3 cells stably transfected with EGFR Δ19Del/T790M, read-out: IC50, growth inhibition, Δ19Del/T790M
IC50 for assorted compounds

{"columns": ["COMPOUND", "IC50"],
 "data": [
  ["CCc1cc(Nc2ncc(Cl)c(Nc3ccc4nccnc4c3N(C)S(=O)(=O)C3CC3)n2)c(OC(F)(F)F)cc1N1CCC(N2CCN(C)CC2)CC1", "50 to 500 nM"],
  ["CCc1cc(Nc2ncc(OC)c(Nc3ccc4nccnc4c3N(C)S(C)(=O)=O)n2)c(OC(F)(F)F)cc1N1CCC(N2CCN(C)CC2)CC1", "≤ 50 nM"],
  ["CCc1cc(Nc2ncc(F)c(Nc3ccc4nccnc4c3N(C)S(=O)(=O)C3CC3)n2)c(OC)cc1N1CCC(N2CCN(C)CC2)CC1", "50 to 500 nM"],
  ["COc1cc(N2CCC(N3CCN(C)CC3)CC2)c(C2CC2)cc1Nc1ncc(Cl)c(Nc2ccc3nccnc3c2N(C)S(C)(=O)=O)n1", "≤ 50 nM"],
  ["CCc1cc(Nc2ncc([N+](=O)[O-])c(Nc3ccc4nccnc4c3N(C)S(C)(=O)=O)n2)c(OC)cc1N1CCC(N(C)C)C1 (stereo not drawn)", "50 to 500 nM"],
  ["CCc1cc(Nc2ncc(Cl)c(Nc3ccc4nccnc4c3N(C3CC3)S(C)(=O)=O)n2)c(OC)cc1N1CCN(C)CC1", "≤ 50 nM"]
]}
